Assay: Unbound fraction in rat plasma
Type: ADME, cell-free
Kindly supply the reported fraction unbound values for the records listed here.

Which value of fraction unbound has been reported for Cn1nnc2ccc(C(=O)NC3CN(c4cc(Cl)ncc4Cl)C3)c(N)c21 in the records?
0.032

For the compound shown here, COc1cc(N2CC(NC(=O)c3ccc4nn(C)c(C)c4c3N)C2)c(Cl)cn1 , give the reported fraction unbound.
0.008

For Cc1c2c(N)c(C(=O)NC3CN(c4cc(Cl)ncc4Cl)C3)ccc2nn1C , what is its reported fraction unbound?
0.01

Any idea what fraction unbound was measured for Cn1nnc2ccc3c(NC4CN(c5cc(Cl)ncc5Cl)C4)ncnc3c21 ?
0.007

Reported fraction unbound, compound Cc1c2c(ccc3c(NC4CN(c5cc(Cl)ncc5Cl)C4)ncnc32)nn1C : ____
0.004

Item COc1cc(N2CC(Nc3ncnc4c3ccc3nn(C)c(C)c34)C2)c(Cl)cn1 has what recorded fraction unbound?
0.002

----------
Assignment: determine reported pEC50 for the given compounds.
Target: UniProt:P08485
Sequence (P08485 whole entry): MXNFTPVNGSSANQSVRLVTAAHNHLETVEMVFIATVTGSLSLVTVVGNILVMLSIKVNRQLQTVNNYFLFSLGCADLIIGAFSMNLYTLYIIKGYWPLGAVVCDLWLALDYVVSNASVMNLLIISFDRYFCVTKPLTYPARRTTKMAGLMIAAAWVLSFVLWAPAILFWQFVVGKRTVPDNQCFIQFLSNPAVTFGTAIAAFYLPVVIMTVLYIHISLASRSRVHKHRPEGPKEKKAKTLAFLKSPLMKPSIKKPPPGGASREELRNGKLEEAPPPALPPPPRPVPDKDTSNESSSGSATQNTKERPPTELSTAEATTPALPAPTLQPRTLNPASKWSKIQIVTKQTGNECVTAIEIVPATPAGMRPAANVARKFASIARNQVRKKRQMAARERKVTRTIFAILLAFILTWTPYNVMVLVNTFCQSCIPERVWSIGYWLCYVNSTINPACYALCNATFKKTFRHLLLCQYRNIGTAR
Assay: Positive allosteric modulation of rat muscarinic M4 receptor
Recall that pEC50 is obtained by taking minus log10 of the concentration measured in molar.

Requested read-out pEC50, target or system UniProt:P08485, entry Cn1nnc2ccc3c(NC4CN(c5cc(Cl)ncc5Cl)C4)ncnc3c21
6.83

UniProt:P08485 / pEC50 / Cn1nnc2ccc(C(=O)NC3CN(c4cc(Cl)ncc4Cl)C3)c(N)c21 : value?
6.80

Could you share what pEC50 was measured for Cc1c2c(N)c(C(=O)NC3CN(c4cc(Cl)ncc4Cl)C3)ccc2nn1C , tested on UniProt:P08485?
7.38

pEC50 of Cc1c2c(ccc3c(NCc4ccc(C(=O)NC5CCCC5)cc4)ncnc32)nn1C on UniProt:P08485?
6.77

So what pEC50 did Cc1c2cc(C(=O)NC3CN(c4cc(Cl)ncc4Cl)C3)ccc2nn1C get with UniProt:P08485?
6.59

Tell me reported pEC50 for Cn1nnc2ccc(C(=O)NC3CN(c4cc(Cl)ncc4Cl)C3)cc21 , tested with UniProt:P08485.
6.14

Request: pEC50, test system UniProt:P08485, entry COc1cc(N2CC(NC(=O)c3ccc4nn(C)c(C)c4c3N)C2)c(Cl)cn1
7.09

Give recorded pEC50 with UniProt:P08485 for the following compound: Cc1c2c(N)c(C(=O)NC3CN(c4ccc(C(F)(F)F)nc4)C3)ccc2nn1C
6.95

Query pEC50 on UniProt:P08485 for Cn1nnc2ccc(C(=O)NC3CN(c4ncc(Cl)cc4F)C3)c(N)c21
6.78

Find pEC50 (UniProt:P08485) for the entry Cc1c2c(ccc3c(NCc4ccc(C(=O)NC5CCC5)cc4)ncnc32)nn1C
6.49
